Cited source for all entries: patent US11492347B2

- System: H1N1 (influenza A/New Caledonia/20/99)
- test: microbe, parasite or virus in culture
- Format: cell-based
- condition info: H1N1, A549, 48 h
Structures can show the parent of a compound that is named as a salt.
value kind: IC50 (nM)
// units = nM; emit number, no label

Some compounds with known IC50 results, for comparison:
CC1(C)CCc2sc(NC(=O)c3cnc(N4CCOCC4)nc3)c(C(=O)O)c2C1 : 820
CC1(C)CCc2sc(NC(=O)c3ccc(N4CCOCC4)nn3)c(C(=O)O)c2C1 : 1390
CC1(C)Cc2c(sc(NC(=O)c3ccc(NC4CCNCC4)cc3)c2C(=O)O)C(C)(C)C1 [Compound #131, hydrochloride salt] : 350
COC1CC(N(C)c2ccc(C(=O)Nc3sc4c(c3C(=O)O)CC(C)(C)CC4(C)C)cc2)C1 (stereo not drawn) : 11.7

Look up H1N1 (influenza A/New Caledonia/20/99) data: IC50 of CC1(C)Cc2c(sc(NC(=O)c3ccc(NC4CCOC4)cc3)c2C(=O)O)C(C)(C)C1 (stereo not drawn) , then report it.
27.9

Look up H1N1 (influenza A/New Caledonia/20/99) data: IC50 of `CC(=O)N1CCC(Nc2ccc(C(=O)Nc3sc4c(c3C(=O)O)CC(C)(C)CC4(C)C)cc2)CC1` , then report it.
80
